Measured values drawn from the supplement of paper PMC7877785 for this set.

# Experiment: self-splicing fitness, log relative to wild type (ln ratio); higher = more splicing; Tetrahymena group I intron in knt gene, E. coli kanamycin selection, DiMSum; sequences stand for … in CUCUCU…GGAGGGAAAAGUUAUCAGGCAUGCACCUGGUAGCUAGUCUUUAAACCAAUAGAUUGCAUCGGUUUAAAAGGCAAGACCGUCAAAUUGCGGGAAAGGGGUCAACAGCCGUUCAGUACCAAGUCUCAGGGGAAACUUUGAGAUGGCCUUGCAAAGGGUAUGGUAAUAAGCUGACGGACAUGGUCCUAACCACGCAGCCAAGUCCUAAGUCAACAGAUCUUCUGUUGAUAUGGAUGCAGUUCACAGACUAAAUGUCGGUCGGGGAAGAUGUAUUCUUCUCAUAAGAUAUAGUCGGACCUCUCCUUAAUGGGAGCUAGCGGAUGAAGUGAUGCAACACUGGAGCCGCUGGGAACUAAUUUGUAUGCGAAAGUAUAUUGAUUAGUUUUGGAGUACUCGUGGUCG;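 note: selection with 25 µg/mL kanamycin versus none on LB agar overnight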
# Condition info: 30 °C
Assay metric: self-splicing fitness (ln)
The answer should be a number; do not append a unit.

# count of solved cases: 5
{"columns": ["Seq text", "Data value"],
 "data": [
  ["ACAUAGCAAUAUUACGCCCC", -1.98],
  ["CAAAAGCAAUAUUACGAUCA", -1.42],
  ["CCCAAGCAAUAUUACGACCG", -3.32],
  ["GAGUAGCAAUAUUACGUAGC", -2.44],
  ["GGACAGCAAUAUUACGUCCG", -2.1]
]}

self-splicing fitness (ln) reading for UCGUAGCAAUAUUACGUAGA : -0.639

self-splicing fitness (ln) reading for GAAGAGCAAUAUUACGUUCG : -1.52

self-splicing fitness (ln) reading for AACAAGCAAUAUUACGUCGC : -3.63

self-splicing fitness (ln) reading for UCCCAGCAAUAUUACGGGAA : -3.21
